These measurements were taken from patent US20240245658A1.

- ASSAYED_SYSTEM: UniProtKB P34969
- Sequence (P34969 whole entry): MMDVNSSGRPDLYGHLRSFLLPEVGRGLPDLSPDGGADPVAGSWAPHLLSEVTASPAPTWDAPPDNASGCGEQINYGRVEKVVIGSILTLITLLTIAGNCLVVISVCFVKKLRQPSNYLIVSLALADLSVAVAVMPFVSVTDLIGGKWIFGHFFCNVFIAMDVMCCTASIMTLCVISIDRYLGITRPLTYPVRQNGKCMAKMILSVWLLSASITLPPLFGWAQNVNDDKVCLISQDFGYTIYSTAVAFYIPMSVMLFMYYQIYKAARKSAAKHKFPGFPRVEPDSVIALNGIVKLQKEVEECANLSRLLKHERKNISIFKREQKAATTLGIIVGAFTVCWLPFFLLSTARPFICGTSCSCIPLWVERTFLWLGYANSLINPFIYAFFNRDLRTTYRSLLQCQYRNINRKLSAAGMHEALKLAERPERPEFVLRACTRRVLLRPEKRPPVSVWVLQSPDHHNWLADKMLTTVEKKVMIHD
- EXPERIMENTAL_PROTOCOL: 5HT7 Antagonism Assay (Euroscreen FAST-0499C), cAMP HTRF
- PROTOCOL_CONDITIONS: CHO-K1 cells expressing human 5-HT7, reference agonist at EC80, cAMP HTRF
pIC50: −log10 of the molar value.
Measured pIC50, listed per entry.

Use these answered entries as a reference point.
1) NCC1Cc2cccnc2Oc2ccccc21 (single isomer, unassigned) [Compound 18] | ≤ 5.00
2) NCC1Oc2ccccc2Oc2cnccc21 (single isomer, unassigned) [Compound 49] | ≤ 5.00
3) NCC1Cc2ncccc2Oc2ccccc21 (single isomer, unassigned) [Compound 30] | ≤ 5.00
4) NCC1Cc2c(Cl)cccc2Oc2cccnc21 (single isomer, unassigned) [Compound 144] | ≤ 5.00
5) NCC1Cc2cc(Cl)ccc2Oc2cccnc21 (single isomer, unassigned) [Compound 121] | > 6.00
6) CNCC1Oc2ccccc2Oc2ncccc21 (single isomer, unassigned) [Compound 45] | ≤ 5.00

Problem: What measured pIC50 goes with NCC1Oc2ccccc2Oc2ccncc21 (single isomer, unassigned) [Compound 54] ?
Solution: ≤ 5.00

Problem: Sample CNCC1Cc2cc(C)ccc2Oc2cccnc21 (single isomer, unassigned) [Compound 131] — what was its pIC50?
Solution: > 6.00

Problem: Which pIC50 is listed for CNC[C@H]1c2ncccc2Oc2ccccc2[C@H]1C (stereo in doubt) [Compound 116] ?
Solution: ≤ 5.00

Problem: Endpoint output: pIC50 of NCC1Cc2c(Cl)cccc2Oc2cccnc21 (single isomer, unassigned) [Compound 145] . Value?
Solution: ≤ 5.00

Problem: Quick one: pIC50 for Cc1cccc2c1CC(CN)c1ncccc1O2 (single isomer, unassigned) [Compound 140] ?
Solution: ≤ 5.00

Problem: Item under review: CNCC1Cc2cccnc2Oc2ccccc21 (single isomer, unassigned) [Compound 19] . Reported pIC50?
Solution: ≤ 5.00

Problem: Which pIC50 value belongs to CNCC1Oc2ccc(F)cc2Oc2ccccc21 (single isomer, unassigned) [Compound 43] ?
Solution: > 6.00

Problem: Would you mind telling me what pIC50 value was observed for CNCC1Cc2ccncc2Oc2ccccc21 (single isomer, unassigned) [Compound 23] ?
Solution: > 6.00
